# measuredTarget: Nuclear receptor subfamily 5 group A member 2 (Homo sapiens, UniProt O00482);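 note: HEK293T cells transfected with LRH-1 and a StAR promoter luciferase reporter; potency for inhibitors that lower LRH-1 driven reporter light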
# Sequence (O00482 whole entry): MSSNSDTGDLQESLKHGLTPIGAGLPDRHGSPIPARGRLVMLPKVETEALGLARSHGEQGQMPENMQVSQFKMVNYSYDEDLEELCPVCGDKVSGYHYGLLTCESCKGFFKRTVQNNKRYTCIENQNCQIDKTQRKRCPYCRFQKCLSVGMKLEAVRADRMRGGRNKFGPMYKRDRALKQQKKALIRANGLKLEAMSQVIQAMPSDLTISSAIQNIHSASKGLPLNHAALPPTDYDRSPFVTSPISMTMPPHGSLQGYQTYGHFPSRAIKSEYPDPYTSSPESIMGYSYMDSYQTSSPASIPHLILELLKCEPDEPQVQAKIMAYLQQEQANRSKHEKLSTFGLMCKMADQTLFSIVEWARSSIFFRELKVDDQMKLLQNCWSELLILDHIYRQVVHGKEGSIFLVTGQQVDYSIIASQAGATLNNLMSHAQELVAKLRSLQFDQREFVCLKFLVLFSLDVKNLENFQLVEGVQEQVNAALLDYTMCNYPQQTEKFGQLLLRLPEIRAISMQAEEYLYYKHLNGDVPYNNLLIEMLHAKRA
# Type: functional, cell-based
The source made the active and inactive calls.
# valid calls are active, inactive; nothing else

Q: Kindly provide the recorded test outcome for the following compound: `Cc1cccc(CN2C(=O)CSc3ccc(C(=O)NC4CC4)cc32)c1`
A: active

Q: I'd appreciate the recorded outcome for `CCOc1cc(/C=N/n2nnnc2N)ccc1OCc1c(C)no[n+]1[O-]` from this test.
A: inactive

Q: Query: recorded result category for `Cc1ccc(NC(=O)CSc2sc3c(O)cc(O)nc3c2C#N)c(F)c1` in this test
A: inactive

Q: Call for entry `Cc1nnc(SCC(=O)Nc2ccc(Br)cc2)n(N)c1=O` :
A: inactive

Q: Which outcome was entered for the compound `Cc1ccc(-c2csc(NC(=O)c3ccc([N+](=O)[O-])o3)n2)cc1` in this test?
A: inactive

Q: Please state the recorded outcome for this compound: `Cc1onc(-c2c(F)cccc2Cl)c1C(=O)ON=C(N)c1ccc([N+](=O)[O-])o1`
A: active

Q: Recorded call for `CC(=O)Nc1cc(-c2cccc(F)c2)cn2c(-c3ccc(S(C)(=O)=O)cc3)cnc12` ?
A: active
